Please respond with reported inhibition for every item in the list.
# target: Lethal factor (Bacillus anthracis)
# assay-remarks: anthrax lethal factor cleavage blockers – biochemical, multiplex microsphere, MLPCN library, primary screen (AID 588501); also: plate controls were buffer without enzyme for full effect and enzyme alone for no effect
# cond: multiplex microsphere protease cleavage assay, LF; at 10 µM; hits give high values
The campaign covered roughly 360,000 compounds. About 420 (0.12%) were called active. This is one part of a sample in which actives are shown more often than they occur.
Please state the figure in %; there is no need to write the unit.

Quick note, inhibition for Oc1ccccc1N1CCN(C(=S)NCc2ccccc2)CC1 landed at -2.2

Quick note, inhibition for COc1ccc(CNC(=O)C(NS(=O)(=O)c2cccc3nsnc23)C(C)C)cc1 (stereo unspecified) landed at 0.7

Quick note, inhibition for O=C(CC(c1ccccc1)c1cc(Cl)ccc1O)NCCN1CCOCC1 (stereo unspecified) landed at -5.6

Quick note, inhibition for CC(O)CN(Cc1ccc(Cl)cc1)CC(C)O (stereo unspecified) landed at 0.1

Quick note, inhibition for CCCCN1CC(COc2ccccc2)Oc2cccc(F)c2S1(=O)=O (stereo unspecified) landed at -2.2

Quick note, inhibition for Cc1cc(C)c(NC(=O)CN2CCCCCC2)c(C)c1 landed at -3.3

Quick note, inhibition for O=C(COc1ccc2c(C(F)(F)F)cc(=O)oc2c1)Nc1ccc2c(c1)OCCO2 landed at -1.9

Quick note, inhibition for CC(=O)Nc1ccc(S(=O)(=O)NCC(=O)OCC(=O)c2ccc[nH]2)cc1 landed at 4.9

Quick note, inhibition for COc1ccc(N(CCC#N)S(=O)(=O)c2ccc(Cl)cc2)cc1 landed at -0.4

Quick note, inhibition for O=C(CN1CCN(c2ccccc2O)CC1)NC(=O)NCc1ccccc1 landed at 50.8

Quick note, inhibition for OC(c1ccc(Cl)cc1)C(CN1CCOCC1)c1ccccc1 (stereo unspecified) landed at 40.7

###

# target: Lethal factor (Bacillus anthracis) (UniProt P15917)
# assay-remarks: anthrax lethal factor cleavage blockers – biochemical, multiplex microsphere, MLPCN library, primary screen (AID 588501); also: plate controls were buffer without enzyme for full effect and enzyme alone for no effect
# cond: multiplex microsphere protease cleavage assay, LF; at 10 µM; hits give high values
Hit rate of the full screen: of about 360,000 compounds, about 420 (0.12%) were called active. The sample holds actives, similar compounds and a random draw of the others, so the mix is not that of the screen.
result-type: inhibition (%)
Please state the figure in %; there is no need to write the unit.

Quick note, inhibition for COCCNC(=O)C(c1ccc(O)cc1)N(C(=O)CCC(=O)Nc1nccs1)c1ccc(C)cc1 (stereo not given) landed at -7

Quick note, inhibition for CCCCC(=O)Nc1ccc2c(c1)C(=O)NC2=O landed at -3.5

Quick note, inhibition for CCCn1nnnc1NC(=O)COc1ccc(Cl)cc1C landed at -6.9

Quick note, inhibition for COc1ccc(C2c3[nH]c4ccccc4c3CCN2CCCn2cccn2)cc1C (stereo not given) landed at 1.2

Quick note, inhibition for NCCCCCC(=O)N/N=C/c1ccc2nccnc2c1 landed at 43.2

Quick note, inhibition for CC(C)n1c(SCC(=O)Nc2ccccc2N2CCCCC2)nc2c1c(=O)n(C)c(=O)n2C landed at 0

Quick note, inhibition for CC(=O)c1ccc(N2C(=NC(=O)C(C)C)SC3CS(=O)(=O)CC32)cc1 (stereo not given) landed at -2.5

Quick note, inhibition for COCCn1nnnc1CN1CCC(NC(=O)Nc2cccc(OC)c2)CC1 landed at 0.1

Quick note, inhibition for COc1ccccc1OCCC(=O)OCC(=O)NCc1ccccc1 landed at -1.1

Quick note, inhibition for CN1/C(=c2/s/c(=C3/C(=O)N(c4ccccc4)NC3=Nc3ccccc3)n(C)c2=O)C(C)(C)c2ccccc21 landed at -14.6
